Data provenance is the SangsterLogP compilation.

# test_conditions: pH 7.4
Values of logD strictly less than 2 map to yes, and values of at least 2 map to no.

Task: Would you kindly verify if logD of `O=C1Nc2ccccc2C1=O` is strictly less than 2?
Output: yes

Task: Dear colleague, could you confirm whether logD of `CCc1nc(C)c([N+](=O)[O-])[nH]1` falls below 2? Thanks.
Output: yes

Task: Here's an entry: `CC(C)(C)c1ccc(N)cc1` . Is its logD below 2?
Output: no

Task: Please let me know if `CN1C(=O)CN=C(c2ccccc2F)c2c(F)cccc21` shows logD below 2.
Output: no

Task: Threshold test, logD < 2: `Cn1c(N)nc2c3nccnc3ccc21`
Output: yes

Task: Decide: logD of `Cc1cc([N+](=O)[O-])cc2c1NC(=O)CN=C2c1ccccc1` strictly below 2?
Output: no

Task: # TODO verify logD < 2 strictly for this compound: `c1ccc(COc2cccc3cccnc23)cc1`
Output: no

Task: # check: logD < 2 for `CCCCCc1ccc(N)cc1`
Output: no

Task: I wonder whether `Cc1ccc(C=Cc2ncc([N+](=O)[O-])n2C)cc1` has logD below 2. Can you tell?
Output: yes

Task: Find out if reported logD for `Nc1ccc2nc3ccccn3c2n1` is less than 2
Output: yes

Task: Dear reviewer, please state whether `Cc1[nH]ccc2c1[nH]c1cc(=O)ccc12` has logD strictly beneath 2.
Output: no

Task: Is it true that logD reported for Cc1ncc([N+](=O)[O-])n1CC(O)CCl (stereo unspecified) is less than 2?
Output: yes

Task: For this compound, is logD lower than 2? `Cn1c([N+](=O)[O-])cnc1C=NNC(N)=S`
Output: yes

Task: For this compound, is logD lower than 2? `CCc1ncc([N+](=O)[O-])n1C`
Output: yes

Task: Report whether reported logD is lower than 2 (strictly) for c1csc(C23CCCN2CCO3)c1 (stereo unspecified)
Output: yes

Task: Is it true that logD reported for `CNc1nc2c3cccnc3ccc2n1C` is less than 2?
Output: yes
